Data credit: patent US20240342292A1

- test target: L858R/T790M/C797S EGFR (Homo sapiens, UniProt P00533, C797S/L858R/T790M)
- Construct: expressed in transfected cells; host or cells: H1975 clone #25 (lentiviral over-expression, endogenous EGFR knocked out by sgRNA)
- Sequence (P00533 25-1210 T790M/C797S/L858R): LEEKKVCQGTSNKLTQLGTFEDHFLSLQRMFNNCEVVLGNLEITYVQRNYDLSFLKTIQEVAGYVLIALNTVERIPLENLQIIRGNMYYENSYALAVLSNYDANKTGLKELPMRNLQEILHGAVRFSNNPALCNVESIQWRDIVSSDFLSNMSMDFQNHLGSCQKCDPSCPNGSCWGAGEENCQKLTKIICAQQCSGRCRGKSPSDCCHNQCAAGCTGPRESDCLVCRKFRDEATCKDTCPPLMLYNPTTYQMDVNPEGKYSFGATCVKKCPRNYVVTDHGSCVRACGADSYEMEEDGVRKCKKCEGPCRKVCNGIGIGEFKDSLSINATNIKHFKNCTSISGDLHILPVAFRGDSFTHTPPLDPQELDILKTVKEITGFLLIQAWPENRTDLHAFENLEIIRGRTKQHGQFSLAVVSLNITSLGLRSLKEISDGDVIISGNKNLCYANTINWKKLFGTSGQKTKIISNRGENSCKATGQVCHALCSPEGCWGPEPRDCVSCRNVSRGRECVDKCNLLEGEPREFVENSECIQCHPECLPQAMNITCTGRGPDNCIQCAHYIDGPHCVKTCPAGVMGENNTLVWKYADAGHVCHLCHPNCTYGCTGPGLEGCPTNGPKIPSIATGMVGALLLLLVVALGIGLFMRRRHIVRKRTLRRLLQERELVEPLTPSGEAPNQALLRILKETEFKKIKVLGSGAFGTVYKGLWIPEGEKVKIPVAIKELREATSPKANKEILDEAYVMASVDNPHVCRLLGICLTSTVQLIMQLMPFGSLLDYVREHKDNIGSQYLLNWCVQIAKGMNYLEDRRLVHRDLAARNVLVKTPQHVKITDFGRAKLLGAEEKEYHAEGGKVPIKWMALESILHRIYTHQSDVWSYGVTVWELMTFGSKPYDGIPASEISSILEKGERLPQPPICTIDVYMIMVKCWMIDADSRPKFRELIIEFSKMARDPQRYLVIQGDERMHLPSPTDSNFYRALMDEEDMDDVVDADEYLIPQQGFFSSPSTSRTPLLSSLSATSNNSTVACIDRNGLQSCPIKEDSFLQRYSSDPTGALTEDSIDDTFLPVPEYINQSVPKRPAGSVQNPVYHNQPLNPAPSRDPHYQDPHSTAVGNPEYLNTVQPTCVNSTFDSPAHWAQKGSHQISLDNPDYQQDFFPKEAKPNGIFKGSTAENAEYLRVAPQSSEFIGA
- assay notes: EGFR degradation HTRF assay in H1975-clone #25 (LTC) cells
- Type: cell-based
- condition notes: H1975 # 25-LTC (L858R/T790M/C797S), 16h treatment, HTRF
reported endpoint: DC50 (pM)

structure string	reported endpoint	measurement unit	assay value
Cc1cc2cc(n1)-c1cnn(C)c1OCCC[C@@H](C)CN1/C(=N/C2=O)Nc2ccc(CN3CCN(C[C@H]4CCN(c5cc(F)c([C@H]6CCC(=O)NC6=O)c(F)c5)C4)CC3)cc21	DC50	pM	1100

[A] Cc1cc2cc(n1)-c1cnn(C)c1OCCC[C@@H](C)CN1/C(=N/C2=O)Nc2ccc(CN3CCN(C(=O)[C@@H]4CCN(c5cc(F)c([C@H]6CCC(=O)NC6=O)c(F)c5)C4)C[C@@H]3C)cc21
[B] Cc1cc2cc(n1)-c1cnn(C)c1OCCC[C@@H](C)CN1/C(=N/C2=O)Nc2ccc(C(=O)N3CC[C@@H](N(C)CCc4cc(F)c([C@H]5CCC(=O)NC5=O)c(F)c4)C3)cc21
Request: Response body: label of entry with the larger DC50; valid values A , B . Your answer should be the label attached to the chosen record.
Response: A
(A: 1400 pM, B: 478 pM)

[I] Cc1cc2cc(n1)-c1cnn(C)c1OCCC[C@@H](C)CN1/C(=N/C2=O)Nc2ccc(C(=O)N(C)[C@@H]3CCN(CCc4cc(F)c([C@H]5CCC(=O)NC5=O)c(F)c4)CC3(C)C)cc21
[II] CO[C@H]1CN(CCc2cc(F)c([C@H]3CCC(=O)NC3=O)c(F)c2)CC[C@H]1NC(=O)c1ccc2c(c1)N1C[C@H](C)CCCOc3c(cnn3C)-c3cc(cc(C)n3)C(=O)/N=C/1N2
Request: Response body: label of entry with the larger DC50; valid values I , II . Your answer should be the label attached to the chosen record.
Response: I
(I: 543 pM, II: 167 pM)

###

- test target: L858R/T790M/C797S EGFR (Homo sapiens, UniProt P00533, C797S/L858R/T790M)
- Construct: expressed in transfected cells; host or cells: H1975 clone #25 (lentiviral over-expression, endogenous EGFR knocked out by sgRNA)
- assay notes: EGFR degradation HTRF assay in H1975-clone #25 (LTC) cells
- Assay type: cell-based
- condition notes: H1975 # 25-LTC (L858R/T790M/C797S), 16h treatment, HTRF
reported endpoint: DC50 (nM)

compound	DC50 [nM]
Cc1cc2cc(n1)-c1cnn(C)c1OCCC[C@@H](C)CN1/C(=N/C2=O)Nc2ccc(C(=O)N3CC[C@H](N(C)CCc4cc(F)c([C@H]5CCC(=O)NC5=O)c(F)c4)C3)cc21 [Example 297]	0.432
CO[C@@H]1CN(CCc2cc(F)c([C@H]3CCC(=O)NC3=O)c(F)c2)CC[C@@H]1N(C)C(=O)c1ccc2c(c1)N1C[C@H](C)CCCOc3c(cnn3C)-c3cc(cc(C)n3)C(=O)/N=C/1N2 [Example 252]	0.584
Cc1cc2cc(n1)-c1cnn(C)c1OCCC[C@@H](C)CN1/C(=N/C2=O)Nc2ccc(C(=O)N(CCN3CCN(c4cc(F)c([C@H]5CCC(=O)NC5=O)c(F)c4)CC3)C(C)C)cc21 [Example 282]	0.752
CCN(C(=O)c1ccc2c(c1)N1C[C@H](C)CCCOc3c(cnn3C)-c3cc(cc(C)n3)C(=O)/N=C/1N2)C1CCN(C2CCN(c3cc(F)c([C@H]4CCC(=O)NC4=O)c(F)c3)CC2)CC1 [Example 288]	0.662
Cc1cc2cc(n1)-c1cnn(C)c1OCCC[C@@H](C)CN1/C(=N/C2=O)Nc2ccc(C(=O)N3CCC4(CC3)CN(C(=O)C3CN(c5cc(F)c([C@H]6CCC(=O)NC6=O)c(F)c5)C3)C4)cc21 [Example 221]	0.705
Cc1cc2cc(n1)-c1cnn(C)c1OCCC[C@@H](C)CN1/C(=N/C2=O)Nc2ccc(C(=O)N[C@@H]3CCN(CCc4cc(F)c([C@H]5CCC(=O)NC5=O)c(F)c4)CC3(F)F)cc21 [Example 260]	0.544

[1] Cc1cc2cc(n1)-c1cnn(C)c1OCCC[C@@H](C)CN1/C(=N/C2=O)Nc2ccc(CN(C)[C@@H]3CCCN(C(=O)[C@@H]4CCN(c5cc(F)c([C@H]6CCC(=O)NC6=O)c(F)c5)C4)C3)cc21 [Example 318]
[2] Cc1cc2cc(n1)-c1cnn(C)c1OCCC[C@@H](C)CN1/C(=N/C2=O)Nc2ccc(NC3CN(C4CCN(c5cc(F)c([C@H]6CCC(=O)NC6=O)c(F)c5)CC4)C3)cc21 [Example 459]
[3] Cc1cc2cc(n1)-c1cnn(C)c1OCCC[C@@H](C)CN1/C(=N/C2=O)Nc2ccc(N3CCN(C[C@H]4CCN(c5cc(F)c([C@H]6CCC(=O)NC6=O)c(F)c5)C4)CC3=O)cc21 [Example 464]
Request: List items by DC50 in falling order. Please respond by ranking the labels in the order requested.
Response: 1, 3, 2
